Attribute: serum triglyceride level, percent of control
Tested on: Rattus norvegicus
Test: In vivo triglyceride lowering activity when dosed as 0.01 % of the diet
Assay type: functional
Hi! Could you send only the number? It should be in %, unit omitted.

Record excerpt, results attached:
1. CCCCCCCCCCCCCCCCNc1cc(C(=O)[O-])c(C(=O)[O-])c(C(=O)[O-])c1.[Na+].[Na+].[Na+] :: 82
2. CCCCCCCCCCCCCCCCNc1ccc(C(=O)CC(=O)C(=O)OC)cc1 :: 101
3. CCCCCCCCCCCCCCCCNc1ccc(C(=O)NCC(=O)O)cc1 :: 76
4. CCCCCCCCCCCCCCCCNc1ccc(C(=O)O)c(OC)c1 :: 75
5. CCCCCCCCCCCCCCCCNc1ccc(C(=O)NCCC(=O)O)cc1 :: 99

Exam item: Any idea what its serum triglyceride level, percent of control is? The compound is CCCCCCCCCCCCCCCCNc1ccc(C(=O)NCC(O)CO)cc1 (configuration not stated)
Marked response: 114

Exam item: Same thing, different compound: CCCCCCCCCCCCCCCCNc1ccc(C(=O)C(C#N)C(=O)OCC)cc1 (configuration not stated)
Marked response: 83

Exam item: Another compound: CCCCCCCCCCCCCCCCNc1ccc(C(=O)O)c(Cl)c1
Marked response: 113

---

Test system: Rattus norvegicus
Assay: In vivo sterol lowering activity at dose of 0.10 % of the diet
Format: functional
property.measured: serum sterol level, percent of control

Use the examples below as a reference point.
1) CCCCCCCCCCCCCCCCNc1ccc(C(=O)CCC(=O)OC)cc1 :: <84%
2) CCCCCCCCCCCCCCCCNc1ccc(C(=O)OCC(=O)OC)cc1 :: <71%

Then this compound:
Exam item: State the recorded serum sterol level, percent of control for this entry: CCCCCCCCCCCCCCCCNc1ccc(C(=O)NCCC(=O)O)cc1
Marked response: <86%

---

Target: Sterol O-acyltransferase 1 (Rattus norvegicus) (UniProt O70536)
Sequence (O70536 whole entry): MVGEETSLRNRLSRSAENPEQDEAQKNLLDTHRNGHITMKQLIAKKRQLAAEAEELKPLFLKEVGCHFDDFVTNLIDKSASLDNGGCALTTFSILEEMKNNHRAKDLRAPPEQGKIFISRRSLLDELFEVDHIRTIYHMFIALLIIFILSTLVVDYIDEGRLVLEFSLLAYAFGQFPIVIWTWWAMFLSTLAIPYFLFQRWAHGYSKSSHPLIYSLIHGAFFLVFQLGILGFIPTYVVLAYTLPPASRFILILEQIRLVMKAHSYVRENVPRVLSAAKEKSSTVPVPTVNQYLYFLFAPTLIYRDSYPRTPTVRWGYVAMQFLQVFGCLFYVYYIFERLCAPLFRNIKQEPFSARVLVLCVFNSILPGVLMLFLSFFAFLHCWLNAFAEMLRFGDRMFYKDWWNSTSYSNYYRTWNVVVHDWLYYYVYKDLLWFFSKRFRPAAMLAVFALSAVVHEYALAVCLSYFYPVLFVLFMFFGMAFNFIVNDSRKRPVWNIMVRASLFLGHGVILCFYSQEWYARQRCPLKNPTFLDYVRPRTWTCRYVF
Experiment: In vitro inhibition of acyl coenzyme A:cholesterol acyltransferase
Parameters: concentration or dose not given beside the values
Conditions: concentration not given here
inhibition listing for selected compounds.

Exam item: Quick check: inhibition on Sterol O-acyltransferase 1 (Rattus norvegicus) (UniProt O70536), item CCCCCCCCCCCCCCCCNc1ccc(C(=O)N2CCCCCC2)cc1 ?
Marked response: < 61%

Exam item: Entry to check: CCCCCCCCCCCCCCCCNc1ccc(C(=O)NC(C)=O)cc1
Marked response: < 35%

Exam item: And then CCCCCCCCCCCCCCCCNc1ccc(C(=O)NCCS(=O)(=O)O)cc1 , what is it?
Marked response: < 45%

---

Tested on: Rattus norvegicus
Assay: In vivo sterol lowering activity at dose of 0.10 % of the diet
Type: functional
property.measured: serum sterol level, percent of control

// known answers, use as guide
1. CCCCCCCCCCCCCCCCNc1ccc(C(=O)C(C(=O)OCC)C(=O)OCC)cc1 :: <87%
2. CCCCCCCCCCCCCCCCNc1ccc(C(=O)NCCS(=O)(=O)O)cc1 :: <80%

Exam item: Using the record for CCCCCCCCCCCCCCCCNCc1ccc(C(=O)O)cc1 , report its serum sterol level, percent of control.
Marked response: <88%

Exam item: Quick one: CCCCCCCCCCCCCCCCNc1ccc(C(=O)OCC(COC(C)=O)OC(C)=O)cc1 (stereo unspecified)
Marked response: <66%

Exam item: Another compound: CCCCCCCCCCCCCCCCNc1ccc(C(=O)SCCO)cc1
Marked response: <84%

Exam item: And then CCCCCCCCCCCCCCCCNc1ccc(C2OCCO2)cc1 , what is it?
Marked response: <71%
